Value source: patent US12187727B2

target-of-assay: human Melanocortin-4 receptor (MC4R) (Homo sapiens (Human))
Sequence (P32245 whole entry): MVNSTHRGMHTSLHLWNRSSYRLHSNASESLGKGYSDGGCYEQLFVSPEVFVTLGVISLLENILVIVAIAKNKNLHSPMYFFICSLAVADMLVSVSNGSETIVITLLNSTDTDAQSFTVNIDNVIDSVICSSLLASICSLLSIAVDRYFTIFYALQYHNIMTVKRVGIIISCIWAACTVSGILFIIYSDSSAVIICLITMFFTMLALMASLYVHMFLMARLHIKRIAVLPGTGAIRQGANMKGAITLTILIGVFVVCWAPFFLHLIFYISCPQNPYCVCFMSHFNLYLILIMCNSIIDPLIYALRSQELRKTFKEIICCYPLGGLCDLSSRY
test-method-notes: Functional in vitro MC4R antagonist potency assay (cAMP HTRF in CHO cells)
Format: cell-based
test-settings: read-out: Kb (nM) Antagonist geometric mean
property: log10 of Kb (log10 of the value in nM)
Please keep in mind that the values are log10 of Kb expressed in nM.

{"columns": ["molecule", "log10 of Kb"],
 "data": [
  ["COc1cnc(-c2cc3c(nc2C)N[C@@]2(CC3)CCN(C(=O)[C@H](C)c3cc(OC)ncc3F)C2)nc1", 1.15],
  ["COc1cc([C@@H](C)C(=O)N2CC[C@@]3(CCc4cc(-c5ncc(C(F)F)cn5)c(C)nc4N3)C2)c(F)cn1", 1.30],
  ["COc1ccc([C@@H](C)C(=O)N2CC[C@@]3(CCc4cc(-c5ncccn5)c(C)nc4N3)C2)cc1F (single isomer, unassigned)", 0.97],
  ["COc1nccc([C@@H](C)C(=O)N2CC[C@@]3(CCc4cc(-c5ncccn5)c(C)nc4N3)C2)c1F (single isomer, unassigned) [Example 57]", 1.08],
  ["Cc1nc2c(cc1-c1ncccn1)CC[C@@]1(CCN(C(=O)[C@H](C)c3ccc(F)c(F)c3)C1)N2 (single isomer, unassigned) [Example 50]", 0.46],
  ["Cc1nc2c(cc1-c1ncccn1)CC[C@@]1(CCN(C(=O)[C@H](C)c3cc(OC(F)F)ncc3Cl)C1)N2 (single isomer, unassigned)", -0.74],
  ["COc1cc([C@@H](C)C(=O)N2CCC3(CCc4cc(-c5coc(C)n5)c(C)nc4N3)C2)c(F)cn1 (mixture of isomers)", 0.51],
  ["COc1cc([C@@H](C)C(=O)N2CC[C@@]3(CCc4ccc(C)nc4N3)C2)c(F)cn1 (single isomer, unassigned)", 1.28]
]}

Data request: // lookup log10 of Kb for COc1cc([C@@H](C)C(=O)N2CCC3(CCc4cc(-c5nnn(C)n5)c(C)nc4N3)C2)c(Cl)cn1 (single isomer, unassigned) [Example 1]
Data returned: -1.31

Data request: Same question, COc1cc([C@@H](C)C(=O)N2CC[C@@]3(CCc4cc(-c5nc(C(F)(F)F)n(C)n5)c(C)nc4N3)C2)c(F)cn1 (single isomer, unassigned) [Example 93] this time
Data returned: 0.61
